EXPERIMENT_NOTES: Stability of the ginsenosides in rat plasma (QC samples)
Type: in vitro ADME
EXPERIMENTAL_SETUP: rat plasma, middle QC (142.4 Rb1, 62.5 Rb2, 48.8 Rd, 98.6 Re ng/mL); three freeze-thaw cycles at −80°C
Attribute: Re (%) Freeze-thaw cycles
Quick note: unit goes after the number.

Answered cases to consult:
| SMILES_CODE | Re (%) Freeze-thaw cycles |
| --- | --- |
| CC(C)=CCC[C@](C)(O[C@@H]1O[C@H](CO[C@@H]2O[C@H](CO)[C@@H](O)[C@H](O)[C@H]2O)[C@@H](O)[C@H](O)[C@H]1O)[C@H]1CC[C@]2(C)[C@@H]1[C@H](O)C[C@@H]1[C@@]3(C)CC[C@H](O[C@@H]4O[C@H](CO)[C@@H](O)[C@H](O)[C@H]4O[C@@H]4O[C@H](CO)[C@@H](O)[C@H](O)[C@H]4O)C(C)(C)[C@@H]3CC[C@]12C | −4.48% |
| CC(C)=CCC[C@](C)(O[C@@H]1O[C@H](CO)[C@@H](O)[C@H](O)[C@H]1O)[C@H]1CC[C@]2(C)[C@@H]1[C@H](O)C[C@@H]1[C@@]3(C)CC[C@H](O[C@@H]4O[C@H](CO)[C@@H](O)[C@H](O)[C@H]4O[C@@H]4O[C@H](CO)[C@@H](O)[C@H](O)[C@H]4O)C(C)(C)[C@@H]3CC[C@]12C | 8.87% |
| CC(C)=CCC[C@](C)(O[C@@H]1O[C@H](CO[C@@H]2OC[C@H](O)[C@H](O)[C@H]2O)[C@@H](O)[C@H](O)[C@H]1O)[C@H]1CC[C@]2(C)[C@@H]1[C@H](O)C[C@@H]1[C@@]3(C)CC[C@H](O[C@@H]4O[C@H](CO)[C@@H](O)[C@H](O)[C@H]4O[C@@H]4O[C@H](CO)[C@@H](O)[C@H](O)[C@H]4O)C(C)(C)[C@@H]3CC[C@]12C | 6.77% |

Next compound, please.
IN: Give its Re (%) Freeze-thaw cycles value. Item: `CC(C)=CCC[C@](C)(O[C@@H]1O[C@H](CO)[C@@H](O)[C@H](O)[C@H]1O)[C@H]1CC[C@]2(C)[C@@H]1[C@H](O)C[C@@H]1[C@@]3(C)CC[C@H](O)C(C)(C)[C@@H]3[C@@H](O[C@@H]3O[C@H](CO)[C@@H](O)[C@H](O)[C@H]3O[C@@H]3O[C@@H](C)[C@H](O)[C@@H](O)[C@H]3O)C[C@]12C`
OUT: 7.53%

---

EXPERIMENT_NOTES: Pharmacokinetics of four ginsenosides in rat plasma after oral administration of PQ-AG and PQ extracts (UPLC-MS/MS)
Type: in vivo
EXPERIMENTAL_SETUP: PQ group: oral PQ extract 0.54 g/kg, male SD rats, n = 6, mean ± SD
Attribute: Cmax
Give the value, in units of ng/mL, as a plain number.

Answered cases to consult:
| MOLECULE | READOUT_VALUE |
| --- | --- |
| CC(C)=CCC[C@](C)(O[C@@H]1O[C@H](CO[C@@H]2OC[C@H](O)[C@H](O)[C@H]2O)[C@@H](O)[C@H](O)[C@H]1O)[C@H]1CC[C@]2(C)[C@@H]1[C@H](O)C[C@@H]1[C@@]3(C)CC[C@H](O[C@@H]4O[C@H](CO)[C@@H](O)[C@H](O)[C@H]4O[C@@H]4O[C@H](CO)[C@@H](O)[C@H](O)[C@H]4O)C(C)(C)[C@@H]3CC[C@]12C [Rb2] | 160 |
| CC(C)=CCC[C@](C)(O[C@@H]1O[C@H](CO)[C@@H](O)[C@H](O)[C@H]1O)[C@H]1CC[C@]2(C)[C@@H]1[C@H](O)C[C@@H]1[C@@]3(C)CC[C@H](O)C(C)(C)[C@@H]3[C@@H](O[C@@H]3O[C@H](CO)[C@@H](O)[C@H](O)[C@H]3O[C@@H]3O[C@@H](C)[C@H](O)[C@@H](O)[C@H]3O)C[C@]12C [Re] | 355 |
| CC(C)=CCC[C@](C)(O[C@@H]1O[C@H](CO)[C@@H](O)[C@H](O)[C@H]1O)[C@H]1CC[C@]2(C)[C@@H]1[C@H](O)C[C@@H]1[C@@]3(C)CC[C@H](O[C@@H]4O[C@H](CO)[C@@H](O)[C@H](O)[C@H]4O[C@@H]4O[C@H](CO)[C@@H](O)[C@H](O)[C@H]4O)C(C)(C)[C@@H]3CC[C@]12C [Rd] | 201 |

IN: Give its Cmax value. Item: CC(C)=CCC[C@](C)(O[C@@H]1O[C@H](CO[C@@H]2O[C@H](CO)[C@@H](O)[C@H](O)[C@H]2O)[C@@H](O)[C@H](O)[C@H]1O)[C@H]1CC[C@]2(C)[C@@H]1[C@H](O)C[C@@H]1[C@@]3(C)CC[C@H](O[C@@H]4O[C@H](CO)[C@@H](O)[C@H](O)[C@H]4O[C@@H]4O[C@H](CO)[C@@H](O)[C@H](O)[C@H]4O)C(C)(C)[C@@H]3CC[C@]12C [Rb1]
OUT: 461

---

EXPERIMENT_NOTES: Pharmacokinetics of four ginsenosides in rat plasma after oral administration of PQ-AG and PQ extracts (UPLC-MS/MS)
Format: in vivo
EXPERIMENTAL_SETUP: male, SD, po, 1.08 g/kg, PQ-AG group: oral PQ-AG extract 1.08 g/kg, male SD rats, n = 6, mean ± SD, read-out: AUC0⟶∞
OBSERVED_PROPERTY: AUC (ng·h/mL)
Give the value, in units of ng·h/mL, as a plain number.

IN: Give its AUC value. Item: `CC(C)=CCC[C@](C)(O[C@@H]1O[C@H](CO)[C@@H](O)[C@H](O)[C@H]1O)[C@H]1CC[C@]2(C)[C@@H]1[C@H](O)C[C@@H]1[C@@]3(C)CC[C@H](O[C@@H]4O[C@H](CO)[C@@H](O)[C@H](O)[C@H]4O[C@@H]4O[C@H](CO)[C@@H](O)[C@H](O)[C@H]4O)C(C)(C)[C@@H]3CC[C@]12C`
OUT: 3960

IN: Give its AUC value. Item: `CC(C)=CCC[C@](C)(O[C@@H]1O[C@H](CO[C@@H]2OC[C@H](O)[C@H](O)[C@H]2O)[C@@H](O)[C@H](O)[C@H]1O)[C@H]1CC[C@]2(C)[C@@H]1[C@H](O)C[C@@H]1[C@@]3(C)CC[C@H](O[C@@H]4O[C@H](CO)[C@@H](O)[C@H](O)[C@H]4O[C@@H]4O[C@H](CO)[C@@H](O)[C@H](O)[C@H]4O)C(C)(C)[C@@H]3CC[C@]12C`
OUT: 2520

IN: Give its AUC value. Item: `CC(C)=CCC[C@](C)(O[C@@H]1O[C@H](CO)[C@@H](O)[C@H](O)[C@H]1O)[C@H]1CC[C@]2(C)[C@@H]1[C@H](O)C[C@@H]1[C@@]3(C)CC[C@H](O)C(C)(C)[C@@H]3[C@@H](O[C@@H]3O[C@H](CO)[C@@H](O)[C@H](O)[C@H]3O[C@@H]3O[C@@H](C)[C@H](O)[C@@H](O)[C@H]3O)C[C@]12C`
OUT: 3580

IN: Give its AUC value. Item: `CC(C)=CCC[C@](C)(O[C@@H]1O[C@H](CO[C@@H]2O[C@H](CO)[C@@H](O)[C@H](O)[C@H]2O)[C@@H](O)[C@H](O)[C@H]1O)[C@H]1CC[C@]2(C)[C@@H]1[C@H](O)C[C@@H]1[C@@]3(C)CC[C@H](O[C@@H]4O[C@H](CO)[C@@H](O)[C@H](O)[C@H]4O[C@@H]4O[C@H](CO)[C@@H](O)[C@H](O)[C@H]4O)C(C)(C)[C@@H]3CC[C@]12C`
OUT: 8410

---

EXPERIMENT_NOTES: Stability of the ginsenosides in rat plasma (QC samples)
Format: in vitro ADME
EXPERIMENTAL_SETUP: extracted low QC (7.2 Rb1, 3.2 Rb2, 2.4 Rd, 5.0 Re ng/mL); autosampler 4°C for 12 h
Attribute: Re (%) Postpreparation
Give the value, in units of %, as a plain number.

| SMILES_CODE | OBSERVED_PROPERTY | READOUT_VALUE |
| --- | --- | --- |
| CC(C)=CCC[C@](C)(O[C@@H]1O[C@H](CO)[C@@H](O)[C@H](O)[C@H]1O)[C@H]1CC[C@]2(C)[C@@H]1[C@H](O)C[C@@H]1[C@@]3(C)CC[C@H](O[C@@H]4O[C@H](CO)[C@@H](O)[C@H](O)[C@H]4O[C@@H]4O[C@H](CO)[C@@H](O)[C@H](O)[C@H]4O)C(C)(C)[C@@H]3CC[C@]12C | Re (%) Postpreparation | 4.43 |
| CC(C)=CCC[C@](C)(O[C@@H]1O[C@H](CO)[C@@H](O)[C@H](O)[C@H]1O)[C@H]1CC[C@]2(C)[C@@H]1[C@H](O)C[C@@H]1[C@@]3(C)CC[C@H](O)C(C)(C)[C@@H]3[C@@H](O[C@@H]3O[C@H](CO)[C@@H](O)[C@H](O)[C@H]3O[C@@H]3O[C@@H](C)[C@H](O)[C@@H](O)[C@H]3O)C[C@]12C | Re (%) Postpreparation | 8.54 |
| CC(C)=CCC[C@](C)(O[C@@H]1O[C@H](CO[C@@H]2O[C@H](CO)[C@@H](O)[C@H](O)[C@H]2O)[C@@H](O)[C@H](O)[C@H]1O)[C@H]1CC[C@]2(C)[C@@H]1[C@H](O)C[C@@H]1[C@@]3(C)CC[C@H](O[C@@H]4O[C@H](CO)[C@@H](O)[C@H](O)[C@H]4O[C@@H]4O[C@H](CO)[C@@H](O)[C@H](O)[C@H]4O)C(C)(C)[C@@H]3CC[C@]12C | Re (%) Postpreparation | 6.86 |

Next molecule, please.
IN: Give its Re (%) Postpreparation value. Item: `CC(C)=CCC[C@](C)(O[C@@H]1O[C@H](CO[C@@H]2OC[C@H](O)[C@H](O)[C@H]2O)[C@@H](O)[C@H](O)[C@H]1O)[C@H]1CC[C@]2(C)[C@@H]1[C@H](O)C[C@@H]1[C@@]3(C)CC[C@H](O[C@@H]4O[C@H](CO)[C@@H](O)[C@H](O)[C@H]4O[C@@H]4O[C@H](CO)[C@@H](O)[C@H](O)[C@H]4O)C(C)(C)[C@@H]3CC[C@]12C`
OUT: −9.72
